Target: ErbB2 (Homo sapiens, UniProt P04626)
Construct: purchased DiscoverX (KINOMEscan service); host or cells: E. coli BL21-derived host (T7 phage) or HEK-293
Sequence (P04626 23-1255): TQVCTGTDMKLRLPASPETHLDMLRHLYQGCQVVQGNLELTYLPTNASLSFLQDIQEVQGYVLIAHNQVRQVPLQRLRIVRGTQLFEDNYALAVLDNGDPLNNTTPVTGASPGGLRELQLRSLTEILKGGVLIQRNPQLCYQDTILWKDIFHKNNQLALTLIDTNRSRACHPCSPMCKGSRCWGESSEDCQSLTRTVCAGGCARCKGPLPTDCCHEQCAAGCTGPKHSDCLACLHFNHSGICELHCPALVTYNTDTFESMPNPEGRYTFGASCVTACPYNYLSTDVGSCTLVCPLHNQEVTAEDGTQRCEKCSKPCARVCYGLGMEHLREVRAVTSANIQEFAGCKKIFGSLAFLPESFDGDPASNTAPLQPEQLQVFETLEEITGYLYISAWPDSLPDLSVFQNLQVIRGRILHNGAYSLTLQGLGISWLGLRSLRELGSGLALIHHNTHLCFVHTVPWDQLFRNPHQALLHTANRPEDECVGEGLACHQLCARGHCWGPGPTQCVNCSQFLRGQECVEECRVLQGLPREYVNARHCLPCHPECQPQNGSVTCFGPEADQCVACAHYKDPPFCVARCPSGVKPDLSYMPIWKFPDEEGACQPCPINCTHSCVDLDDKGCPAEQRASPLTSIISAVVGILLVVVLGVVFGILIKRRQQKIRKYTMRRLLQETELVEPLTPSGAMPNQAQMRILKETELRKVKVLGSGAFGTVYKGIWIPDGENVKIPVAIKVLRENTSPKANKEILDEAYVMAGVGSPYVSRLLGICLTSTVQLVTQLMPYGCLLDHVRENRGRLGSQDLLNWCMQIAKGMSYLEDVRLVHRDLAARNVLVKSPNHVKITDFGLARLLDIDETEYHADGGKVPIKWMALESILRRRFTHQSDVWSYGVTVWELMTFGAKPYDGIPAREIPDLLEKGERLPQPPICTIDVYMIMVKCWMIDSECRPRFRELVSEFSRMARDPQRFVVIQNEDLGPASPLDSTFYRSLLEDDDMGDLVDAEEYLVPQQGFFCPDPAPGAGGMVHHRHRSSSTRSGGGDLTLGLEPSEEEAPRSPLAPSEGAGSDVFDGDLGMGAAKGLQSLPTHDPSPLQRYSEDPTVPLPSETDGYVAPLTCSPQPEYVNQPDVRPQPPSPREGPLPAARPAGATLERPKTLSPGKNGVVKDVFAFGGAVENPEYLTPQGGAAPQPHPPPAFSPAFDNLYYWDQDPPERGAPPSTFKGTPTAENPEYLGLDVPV
Experiment: DiscoverX KINOMEscan competition binding assay
Details: compound 10 µM; lower values = higher affinity; below 35% = significant binding
measurement.name: % control, ErbB2 (DiscoverX) (% control)
Answer with a number only, understood to be in % control.

Take a look at these entries with their results.
COCCNC(=O)NC(C)Cc1ccc(O)cc1 (centres unmarked); 100
Cc1ccccc1Cn1cnc2c(nnn2-c2ccccc2)c1=O; 99
COC(=O)Cc1ccc(Oc2ncnc3sc4c(c23)CC[C@@H](C)C4)cc1 (racemic); 21
CCc1nnc(NC(=O)c2nn(-c3ccc(C)cc3)ccc2=O)s1; 100

Shift focus to the following entry.
## Task Reported % control, ErbB2 (DiscoverX), compound CCc1nccc(-c2nccn2C(Cn2cccn2)c2ccccc2)n1 (centres unmarked) : ____
## Result 100

Values from paper PMC7865522
